Data origin: patent US8293274B2

Protocol details: Intestinal absorption test of various antitumor agents (plasma concentration by gas/liquid chromatography)
Condition: male, Sprague-Dawley, rat, in vivo, po, 50 mg/kg
Observed property: AUC(0-t) (ng·h/mL)
Respond numerically; units are ng·h/mL and should not be typed.

Give me measured AUC(0-t), please, for this compound: O=P1(NCCCl)OCCCN1CCCl (stereo not shown) [Comparative Test Example 4-2, ifosfamide]
1240

* * *

Protocol details: Intestinal absorption test of various antitumor agents (plasma concentration by gas/liquid chromatography)
Condition: male, Sprague-Dawley, rat, in vivo, po, 50 mg/kg
Observed property: Cmax (ng/mL)
Only the number, expressed in ng/mL, is required.

Dear colleague, please send me the reported Cmax for O=P1(NCCCl)OCCCN1CCCl (stereo not shown) [Comparative Test Example 4-2, ifosfamide] when you can.
250
